- experimental.protocol: Aqueous solubility of compound at pH 1 by UPLC analysis
- Type: physicochemical
- experimental.context: buffer
assay.endpoint: solubility

compound="COC(=O)N[C@H](C(=O)N[C@@H](Cc1ccccc1)[C@H](CN(Cc1ccc(-c2ccccn2)cc1)NC(=O)[C@@H](NC(=O)OC)C(C)(C)C)OC(=O)OC(OC(=O)C1(N)CC1)C(C)C)C(C)(C)C (stereo in doubt; 3y)" obs_value="> 1800 µg/mL"
compound="COC(=O)N[C@H](C(=O)N[C@@H](Cc1ccccc1)[C@H](CN(Cc1ccc(-c2ccccn2)cc1)NC(=O)[C@@H](NC(=O)OC)C(C)(C)C)OC(=O)OC(OC(=O)[C@H](C)N)C(C)C)C(C)(C)C (stereo in doubt; 3q)" obs_value="> 1700 µg/mL"
compound="COC(=O)N[C@H](C(=O)N[C@@H](Cc1ccccc1)[C@H](CN(Cc1ccc(-c2ccccn2)cc1)NC(=O)[C@@H](NC(=O)OC)C(C)(C)C)OC(=O)OC(OC(=O)C[C@H](N)Cc1cc(F)c(F)cc1F)C(C)C)C(C)(C)C (stereo in doubt; 3ab)" obs_value="> 960 µg/mL"

// next item, solubility requested
Qu. Report solubility for COC(=O)N[C@H](C(=O)N[C@@H](Cc1ccccc1)[C@H](CN(Cc1ccc(-c2ccccn2)cc1)NC(=O)[C@@H](NC(=O)OC)C(C)(C)C)OC(=O)OC(OC(=O)[C@@H](N)C(C)C)C(C)C)C(C)(C)C (stereo in doubt; 3s)
Ans. > 2100 µg/mL
